Test: Cytotoxicity against human Raji cells assessed as cell viability at 500 molar ratio
Type: cell-based
Conditions: read-out: Activity
Consider the following compounds; for each one, report its viability at 500 molar ratio.

Form: compound = CC1=C(/C=C/C(C)=C/C=C/C(C)=C/C=C/C=C(C)/C=C/C=C(C)/C=C/C2=C(C)CCCC2(C)C)C(C)(C)CCC1 [BETA CAROTENE] ; viability at 500 molar ratio = > 80%

Form: compound = "CC(=C/C=C/C(C)=C/C=C/C=C(C)/C=C/C=C(C)\C=C\[C@H]1[C@H](C)[C@@H](O)CCC1(C)C)/C=C/[C@H]1[C@H](C)[C@@H](O)CCC1(C)C" ; viability at 500 molar ratio = 70%

Form: compound = "CC(=C/C=C/C(C)=C/C=C/C=C(C)/C=C/C=C(C)\C=C\[C@H]1[C@H](C)C(=O)CCC1(C)C)/C=C/[C@H]1[C@H](C)[C@@H](O)CCC1(C)C" ; viability at 500 molar ratio = > 80%

Form: compound = CC(=C/C=C/C(C)=C/C=C/C=C(C)/C=C/C=C(C)\C=C\[C@H]1[C@H](C)C(=O)CCC1(C)C)/C=C/[C@H]1[C@H](C)C(=O)CCC1(C)C [CUCUMARIAXANTHIN A] ; viability at 500 molar ratio = > 80%
